ASSAY_PROTOCOL: Selectivity index, ratio of LC50 for cytotoxicity in human U937 cells to EC50 for antileishmanial activity against GFP-tagged Leishmania panamensis MHOM/CO/87/UA140 intracellular amastigotes infected in human U937 cells
Assay type: toxicity, cell-based
PROPERTY: selectivity ratio

Below, 2 compounds whose answers are already recorded.
compound=O=C(/C=C/c1ccc(O)c(O)c1)OCCCOc1cc(Cl)ccc1Oc1ccc(Cl)cc1Cl result="> 16.1"
compound=O=C(/C=C/c1ccc(O)c(O)c1)OCCCCOc1cc(Cl)ccc1Oc1ccc(Cl)cc1Cl result=3.16

Next item in the queue.
selectivity ratio recorded for this compound, C[C@@H]1[C@H](O)[C@@H](C)/C=C/C=C/C=C/C=C/C=C/C=C/C=C/[C@H](O[C@@H]2O[C@H](C)[C@@H](O)[C@H](N)[C@@H]2O)C[C@@H]2O[C@](O)(C[C@@H](O)C[C@@H](O)[C@H](O)CC[C@@H](O)C[C@@H](O)CC(=O)O[C@H]1C)C[C@H](O)[C@H]2C(=O)O [AMPHOTERICIN B] , is 842
